# assay-text: NCI Yeast Anticancer Drug Screen. Data for the rad50 strain (AID 155);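 also: 0% = growth of vehicle-only cultures of the same strain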
# condition: S. cerevisiae rad50 strain growth inhibition; at 50.0 µM; stronger effect = higher value
This is part of a sample that, as a whole, favours compounds with a hit. Of some 79,000 tested, about 15% had one in any assay.
Each entry below carries its recorded growth inhibition.
Express it in %; write the number only.

# compound, growth inhibition (%)
data = [
    ("O=C(O)c1ccncc1S(=O)(=O)O", -20.6),
]

Could you tell me which growth inhibition is on file for COCCN(C(=O)c1ccccc1)C1CCC2(SCCS2)c2[nH]c3ccccc3c21 (stereo not given) ? 16.1

# lookup: growth inhibition of CCCC(=O)Nc1cc(C(=O)N2C[C@@H]3C[C@]34C2=CC(=O)c2[nH]cc(C)c24)n(COC)c1 26.5

# growth inhibition lookup, item COc1ccc(CNc2ncccn2)cc1 14.1

I am curious: what growth inhibition value has been reported for CNC(=O)OCc1c(COC(=O)NC)c(C)n(-c2ccccc2)c1C ? 7.75

What growth inhibition value was documented for this compound, ON(Cc1ccccc1)Cc1ccccc1 ? -3.95

Dear colleague, I am looking for the recorded growth inhibition of the following compound: CN(C)Cc1cccc(-c2ccccc2)c1O 21.8

Recorded growth inhibition of Nc1ccc(C(=O)NN2C(=O)C(Cl)C2c2cccc(O)c2)cc1 (stereo not given) , please. -4.45

What growth inhibition value was documented for this compound, c1ccc(N2CCN(c3ccccc3)C2)cc1 ? -33.8

# lookup: growth inhibition of CCCCCCOC(=O)c1ccccc1Cl 5.75

Could you tell me which growth inhibition is on file for CSC(=S)n1nc(-c2ccccc2)c(N=Nc2cccc(Cl)c2Cl)c1-c1ccccc1 ? 90.2

Just for reference, PubChem BioAssay (NCI) is where these values come from.
